folding stability dG unfold: recorded values
- Test Method Notes: folding stability dG unfold from chymotrypsin proteolysis; higher = more stable
Respond with the bare value in kcal/mol.

Previously resolved entries follow.
Biosequence | folding stability dG unfold (kcal/mol)
SAGGSAMLVVADDPEVVRELVEPLFPDGEPVLVVGATEEEAAKLVEELKKKGLPFKVVVVRRPDRPSAGGSA [r15_567_TrMRF] | -0.039
SASSMSLSFSVSLETDPEKGLLSTVTTTSTVTPYPDSVVTTTTVTTTVTPVPPGPPVVSPSATPVVALSSAG [r14_435_JUSTAS] | 0.593
SAGGSAGGSGNSKLTATLTLEFYDPKTGKKIAKIELKPVITTLPNGTAKIDVEYKITFTNEDDSAGGSAGGS [r12_629_TrMRF] | 3.74
SAGGSAGGSAGMTTLTVTVPAPPDALTPEDVVALLRPEYPDATITVTREGDTLVVTVTVASAGGSAGGSAGG [r11_7_JUSTAS] | 2.39
SPESIEVQISKSSSTSPSGGSEEIYTVTVTYPATGKTLTKNFTATLNPDGTTNPNGSPEELAAKLAAELLAS [r1_77_JUSTAS] | 2.23

Identify measured folding stability dG unfold associated with SAGPKIRTIIKEILKELNPDRPIEIHTHPDGFIIIVNPDDGRFIMIKIDPDGDIKISEVVPAEEMKKMMSAG [r5_852_TrROS]
1.17

Identify measured folding stability dG unfold associated with SAGGSAMPEDTPFVVTKTTEYRLPDGSRVTFEPVPETGKTLVTFTPPDGSSERVWLTPEEAEKLLASAGGSA [r15_2_JUSTAS]
1.3

###

- Test Method Notes: folding stability dG unfold (combined trypsin and chymotrypsin); higher = more stable
Outcome label depends on folding stability dG unfold relative to 1 kcal/mol: at/above gives 1, below gives -1.

Take a look at these entries with their results.
Biosequence | Qualitative Label
SDAIKNQTIEELLDQLPPGDEPGEPKEFTIPGYEIKITDFEPEKDDGGGPRPRRVIEVEDPNGPIEIPIESA [r9_279_TrROS] | -1
SAGGSAGGSAGGSKPKVKITIEKNKETNEYTITIEKDGKKYTFVVKNLKPDDPAIKKALSAGGSAGGSAGGS [r4_328_TrROS_Hall] | 1
SAGGSAGGSATIKIKVPPGEPYMIRIRWPDGKSHEHNVPPGEEITIPPDNFDGITPIEIQPYSAGGSAGGSA [r18_210_TrROS] | -1
SAGGSAGGSAGGSLAFEGSFRFRKLKLTFKRKLTRTRPDGEPEEFEEELELEVEVVLPVSAGGSAGGSAGGS [r4_418_TrMRF] | 1
SAEVYEFGNAVVVVTTSPDGTVRVYVFNPETGEVTEIEIHPDTPGEYKVRPLGNGEVKEATVPVSDILPVSA [r9_1071_TrMRF] | 1

Could you please find out whether SAGGSAMLTLLYRVPPGDPLAHAREIAEALEERFGAKVRILDVKVERDPVTREVYIPVVVELELPESAGGSA [r15_70_TrMRF] has folding stability dG unfold that meets 1 kcal/mol or exceeds it?
1

Could you please find out whether SAGGSAGGSAGGGFEITLPDKPIKVLEARFIPEKKLVEVLAEHPDGVLVRGVFPPELKLGSAGGSAGGSAGG [r7_427_TrMRF] has folding stability dG unfold that meets 1 kcal/mol or exceeds it?
-1

###

- Test Method Notes: folding stability dG unfold from chymotrypsin proteolysis; higher = more stable
Outcome label depends on folding stability dG unfold relative to 2 kcal/mol: at/above gives 1, below gives -1.

Take a look at these entries with their results.
Biosequence | Qualitative Label
SAGGSAEKVEIKVTYDKETGKVTVEIRVEVDLSEEQLKKLKELAEELGLEVEVTVEVRYEPPPPKESAGGSA [r15_542_TrROS_Hall] | 1
SAGGSAGGSGDKDEVDPNKNISPIPPVKATIFPPDGTPRTVTFTSEEELKAYAEARGWTIEVPSAGGSAGGS [r12_244_JUSTAS] | -1
SAGGSAGGKKPVYEIEITTKDGSKLTIAVKEGEEVEIKITVNGKEISLEDITSIEIRPVELPEESAGGSAGG [r6_222_TrROS_Hall] | -1
SAGGSAGGSAGMKLPEGWEIVAVYRDKETNKLYLIVRDTKTKKLLIVDLDTKKIISAEELSAGGSAGGSAGG [r11_268_TrROS_Hall] | 1
SAGGSAGGSAGGGSMTTTTLTFTVPPDVTPEEVRAALEAAGYGDVAVTREGNTWTVTVTSAGGSAGGSAGGS [r10_868_JUSTAS] | 1
SAGGSAGGMELISEKPAKVKYGDKEAEVWVKLVKIPNTDEVLVTLYFPGSGKPRIIPAKDVEIESAGGSAGG [r6_263_TrMRF] | -1
SAGKIKVYYDPKLGRIIEIPLPNGKRIRIYLPKNKLIIVAEDPEGNKAIPIEIETKIGDIIKIIKEIAGSAG [r5_820_TrMRF] | 1
SAGGSAGGSAKPKPVETVEVTVTGKDGKKYKVTVVYDEKTGKLYVKYNGKIYKVDSLEEALKSAGGSAGGSA [r18_67_TrROS_Hall] | 1
SMSVVVPPDEGLTVTLTTLPGGTIEIHVGDTVLTRDVAPGETLTVTVPPDRTGNTVTVVGPGGVVVTSSGSA [r9_143_JUSTAS] | -1
SAGGMFKVYEVTGKDAKVTIVEAPLPDGGKLVVVEVWEGGKPVKPFLVPVAELEEIAKAIGIKPEELKSAGG [r13_108_TrMRF] | -1

Could you please find out whether SAGGSAGGSAGMSALVLKVKIYYPKELFSPEEIEKIKSARIEVEPFLVEVKIDPETGELGSAGGSAGGSAGG [r17_310_TrMRF] has folding stability dG unfold that meets 2 kcal/mol or exceeds it?
1

Could you please find out whether SAGGSAGGSAGKIEIYPNDNQYYIKITVPRRNPNNGKWERQERTIPMPPDQAKELLKNGISAGGSAGGSAGG [r11_389_TrROS] has folding stability dG unfold that meets 2 kcal/mol or exceeds it?
-1

###

- Test Method Notes: folding stability dG unfold (combined trypsin and chymotrypsin); higher = more stable
Outcome label depends on folding stability dG unfold relative to 1 kcal/mol: at/above gives satisfied, below gives not satisfied.

Biosequence | Qualitative Label
SAGGSAGGSAGGMTKLEPLATEPNPLKVLTKVTTTDPVTGKPKTTIVETEIPVPESELGSAGGSAGGSAGGS [r10_846_JUSTAS] | not satisfied
SAGGSAGGGSLKYTPGVHRLTYYDPATGTTTTLTFTSEEEALEYLKKKYPDVPWKRNPDGTWVLSAGGSAGG [r6_288_JUSTAS] | satisfied
SAGGSAGGSAGGPDWRMISIPITFRFYVMEYDGGKPKKAEPIHEHPIPIMIMFPPDALKSAGGSAGGSAGGS [r10_492_TrROS] | satisfied
SAGGGSMEEARRLIEEIAEEVKAKGVKVKVRITFGPDPKVLSIEIFSPDEPIVDNGGPGLVTLTFDIPSAGG [r13_693_JUSTAS] | satisfied
SAGGMTVSVTADGSSYTATVKLPDGTTLTVPFTSLEELATQVREEYEKAFPDVPLERLVLEDISPTAPSAGG [r13_887_JUSTAS] | satisfied
SAGGSAKPGEKLKIRMWNPDGETHEFDVKIPPGVRIRMPDNGQEQTFPPGDEIPFPPNMPIQVEKVSAGGSA [r15_152_TrROS] | not satisfied
SAGGSAGGSSEKEEKIRNIIKENFPENVIKKVEFNNDIVKIYGIPEYVKKAKEKLGSKNFIENSAGGSAGGS [r12_748_TrMRF] | not satisfied
SAGGMTITIPVTESGSLEEALALAERVAEEARAAGLEEVTITVTVYDPANGEVLYTKTRRVPVRPEASAGGS [r8_33_JUSTAS] | satisfied

Could you please find out whether SAGGSAGGSMVLNFEDTKPGVSPEEAAARVAAKIRAEHDVAVLGVEVETSPTGGYHITITVDPSAGGSAGGS [r12_781_JUSTAS] has folding stability dG unfold that meets 1 kcal/mol or exceeds it?
not satisfied

Could you please find out whether SAKLTLEIEVNGKKYKAEITSVDEETGTVTIKVTFPDGSTQTLTLTFPPAPPPKVEKVYVVDKDGKLLKSAG [r14_466_TrROS_Hall] has folding stability dG unfold that meets 1 kcal/mol or exceeds it?
satisfied

Could you please find out whether SAGGSAGGSAGGMFVRIEVDGKTILLEADSLEEALAAIRALLPPGEKVKVELVSEEELKSAGGSAGGSAGGS [r10_1167_TrROS_Hall] has folding stability dG unfold that meets 1 kcal/mol or exceeds it?
satisfied

Could you please find out whether SAGGSAGGSAGNIEVNGDRIKIRFEGGHEFTFPNLPPGKPIEFKFNNQPFRIRDVEVEPPSAGGSAGGSAGG [r11_16_TrROS] has folding stability dG unfold that meets 1 kcal/mol or exceeds it?
not satisfied

Could you please find out whether SAGGATPLPDGGYRLTYTVKLSPSESVEDAPKAAAALAEKYGVTPVAITVDPSTGTVTIDILLPPEVRSAGG [r13_178_JUSTAS] has folding stability dG unfold that meets 1 kcal/mol or exceeds it?
satisfied

Could you please find out whether SAGGSAPPNLQIDIQINPGHGYIEVSVQIPGRHVKASAKLTEPGQLKMDIEFPGNGKEIDITIPISSAGGSA [r15_837_TrROS] has folding stability dG unfold that meets 1 kcal/mol or exceeds it?
satisfied

The values you see were collected from the supplement of paper PMC12764529.
